Where do these numbers come from? They come from patent US20190015423A1.

Test system: MLO-Y4 osteocytes
Experiment: High-throughput drug screening of primary cilia length and incidence
Format: cell-based
Details: 10 μM, 16 hours, triplicate; normalized to vehicle control; standard deviation away from the population average
Counter-ions that a name gives are not always drawn. Where a SMILES comes first, the peptide text is derived from it.
measured.quantity: Average Incidence SD Away

1. Cc1cc(NS(=O)(=O)c2ccc(N)cc2)no1 [Sulfamethoxazole]
1.767 SD
2. CC(C)OC(=O)C(C)(C)Oc1ccc(C(=O)c2ccc(Cl)cc2)cc1 [Fenofibrate (Tricor Trilipix), Fenofibrate]
2.95 SD
3. O=C1NC(=O)c2c1c1c3ccccc3[nH]c1c1[nH]c3ccccc3c21 [Arcyriaflavin A]
1.892 SD
4. CC[C@@]1(O)C(=O)OCc2c1cc1n(c2=O)Cc2cc3c(CN(C)C)c(O)ccc3nc2-1 [Topotecan hydrochloride hydrate]
2.75 SD
5. COc1c(C)c2c(c(O)c1C/C=C(\C)CCC(=O)OCCN1CCOCC1)C(=O)OC2 [Mycophenolate mofetil (CellCept), Mycophenolate mofetil]
1.654 SD
6. COC(=O)Nc1nc2ccc([S+]([O-])c3ccccc3)cc2[nH]1 (centres unmarked) [Oxfendazole]
2.268 SD
7. N#CC(c1ccc(Cl)cc1)c1c(Cl)cc(-n2ncc(=O)[nH]c2=O)cc1Cl (centres unmarked) [Diclazuril]
1.668 SD
8. CCCCc1oc2ccccc2c1C(=O)c1cc(I)c(OCCN(CC)CC)c(I)c1 [Amiodarone HCl]
3.38 SD
9. O=c1[nH]c(=O)n([C@H]2C[C@H](O)[C@@H](CO)O2)cc1F [Floxuridine]
1.58 SD
10. COC(=O)[C@H](Cc1ccccc1)NC(=O)[C@@H](N)CC(=O)O [Aspartame] (H-Asp-Phe-OMe)
1.732 SD
11. NC(=O)NO [Hydroxyurea (Cytodrox), Hydroxyurea]
1.988 SD
12. CN(C)CCc1c[nH]c2ccc(C[C@H]3COC(=O)N3)cc12 [Zolmitriptan (Zomig), Zolmitriptan]
1.521 SD
13. CCCCC(=O)N(Cc1ccc(-c2ccccc2-c2nnn[nH]2)cc1)[C@H](C(=O)O)C(C)C [Valsartan (Diovan), Valsartan]
1.648 SD
14. CN(Cc1cc(Br)cc(Br)c1N)C1CCCCC1 [Bromhexine HCl]
1.882 SD
15. CCCC(=O)[O-].[Na+] [Sodium butyrate]
2.3981 SD
16. Nc1nc2[nH]cc(CCc3ccc(C(=O)N[C@@H](CCC(=O)O)C(=O)O)cc3)c2c(=O)[nH]1 [Pemetrexed]
2.083 SD
17. COc1cc(C(C)=O)ccc1OCCCN1CCC(c2noc3cc(F)ccc23)CC1 [Iloperidone (Fanapt), Iloperidone]
1.775 SD
18. CCCCN1CCCCC1C(=O)Nc1c(C)cccc1C (centres unmarked) [Bupivacaine hydrochloride (Marcain), Bupivacaine hydrochloride]
1.827 SD
19. c1ccc(-c2[nH]ncc2-c2ccnc3ccccc23)nc1 [LY 364947]
1.591 SD
20. Nc1nc(N)nc(-c2cc(Cl)ccc2Cl)n1 [Irsogladine]
1.543 SD
21. CC(=O)O[C@]1(C(C)=O)CC[C@H]2[C@@H]3C[C@H](C)C4=CC(=O)CC[C@]4(C)[C@H]3CC[C@@]21C [Medroxyprogesterone acetate]
2.659 SD
22. COc1nccc(-c2c(-c3ccc(F)cc3)ncn2C2CCC(O)CC2)n1 (centres unmarked) [SB 239063]
1.795 SD
23. C[C@@H]1CC(=O)NN=C1c1ccc(NN=C(C#N)C#N)cc1 [Levosimendan]
1.52 SD
24. COCCc1ccc(OCC(O)CNC(C)C)cc1 (centres unmarked) [Metoprolol tartrate]
1.601 SD
25. O=C(O)/C=C/c1ccc(Cn2ccnc2)cc1 [Ozagrel HCl]
1.683 SD
26. O=NN(CCCl)C(=O)NC1CCCCC1 [Lomustine (CeeNU), Lomustine]
2.228 SD
27. NC(=O)c1ncn([C@@H]2O[C@H](CO)[C@@H](O)[C@H]2O)c1N [Acadesine]
1.847 SD
28. CC(C(=O)[O-])c1cccc(Oc2ccccc2)c1.CC(C(=O)[O-])c1cccc(Oc2ccccc2)c1.[Ca+2] (centres unmarked) [Fenoprofen calcium]
3.368 SD
29. COc1ccc(C(=O)CC(=O)c2ccc(C(C)(C)C)cc2)cc1 [Avobenzone (Parsol 1789), Avobenzone]
1.502 SD
30. C[N+]1(C)[C@@H]2C[C@@H](OC(=O)C(O)(c3cccs3)c3cccs3)C[C@H]1[C@@H]1O[C@@H]12 [Tiotropium Bromide hydrate]
1.593 SD
31. COc1cc2c(cc1OC)CC(=O)N(CCCN(C)C[C@H]1Cc3cc(OC)c(OC)cc31)CC2 [Ivabradine HCl (Procoralan), Ivabradine HCl]
1.611 SD
32. CCCOc1ccc(C(=O)OCCN(CC)CC)cc1N [Proparacaine HCl]
1.523 SD
